What microsomal CLint at 1 μM was measured for each of the following?
- Method Description: Liver microsomes study, Phase I stability (RLM)
- Assay type: in vitro ADME, rat
- Run Parameters: pH 7.4; rat liver microsomes 0.5 mg/mL, 1 μM test article; read-out: RLM Clint
The response must be a number in µL/min/mg with no trailing unit.

Input: GET /values?readout=microsomal CLint at 1 μM&item= CC[C@@H](C#N)NC(=O)c1ccc(-c2nc(Nc3cnn(C4CC(C)(C)OC(C)(C)C4)c3)ncc2Cl)cc1
Output: 51.9

Input: GET /values?readout=microsomal CLint at 1 μM&item= Cc1cnc(Nc2cnn(C)c2)nc1-c1ccc(C(=O)NCC2(C#N)CC2)cc1
Output: 132

Input: GET /values?readout=microsomal CLint at 1 μM&item= Cc1cnc(Nc2cnn(C3CCN(C)CC3)c2)nc1-c1ccc(C(=O)N[C@H](C#N)C(C)C)cc1
Output: 115

Input: GET /values?readout=microsomal CLint at 1 μM&item= Cc1cnc(Nc2cnn(C3CCN(C(=O)C45CC(C4)C5)CC3)c2)nc1-c1ccc(C(=O)NCC#N)cc1
Output: 93.6

Input: GET /values?readout=microsomal CLint at 1 μM&item= CC[C@@H](C#N)NC(=O)c1ccc(-c2nc(Nc3cnn(CCO)c3)ncc2C)cc1
Output: 14.8

Input: GET /values?readout=microsomal CLint at 1 μM&item= Cc1cnc(Nc2cnn(C3CCOCC3)c2)nc1-c1ccc(C(=O)N[C@@H](C)C#N)cc1
Output: 38.6

Input: GET /values?readout=microsomal CLint at 1 μM&item= Cc1cnc(Nc2cnn(C3CCN(C(=O)C4(C)CC4)CC3)c2)nc1-c1ccc(C(=O)NCC#N)cc1
Output: 61

Input: GET /values?readout=microsomal CLint at 1 μM&item= CC[C@@H](C#N)NC(=O)c1ccc(-c2nc(Nc3cnn(C4CCNCC4)c3)ncc2Cl)cc1
Output: 18.9

Input: GET /values?readout=microsomal CLint at 1 μM&item= Cc1cnc(Nc2cnn(C)c2)nc1-c1ccc(C(=O)N[C@@H](C)C#N)cc1
Output: 23.3

Input: GET /values?readout=microsomal CLint at 1 μM&item= Cc1cnc(Nc2cnn(C3CC3)c2)nc1-c1ccc(C(=O)NCC#N)cc1
Output: 263

Input: GET /values?readout=microsomal CLint at 1 μM&item= Cc1cnc(Nc2cnn(CC#N)c2)nc1-c1ccc(C(=O)NCC#N)cc1
Output: 16.4

Input: GET /values?readout=microsomal CLint at 1 μM&item= CO[C@H]1CC[C@H](n2cc(Nc3ncc(C)c(-c4ccc(C(=O)N[C@@H](C)C#N)cc4)n3)cn2)CC1
Output: 80.1

Input: GET /values?readout=microsomal CLint at 1 μM&item= Cc1cnc(Nc2cnn(C3C[C@@H](C)O[C@@H](C)C3)c2)nc1-c1ccc(C(=O)N[C@@H](C)C#N)cc1 (some centres unmarked)
Output: 259

Input: GET /values?readout=microsomal CLint at 1 μM&item= CC[C@@H](C#N)NC(=O)c1ccc(-c2nc(Nc3cnn(C4CCN(C)CC4)c3)ncc2Cl)cc1
Output: 221

Input: GET /values?readout=microsomal CLint at 1 μM&item= Cc1cnc(Nc2cnn(C3C[C@@H](C)O[C@@H](C)C3)c2)nc1-c1ccc(C(=O)NCC#N)cc1 (some centres unmarked)
Output: 228

Input: GET /values?readout=microsomal CLint at 1 μM&item= CC[C@@H](C#N)NC(=O)c1ccc(-c2nc(Nc3cnn(C4CCN(C)CC4)c3)ncc2C)cc1
Output: 78.5

Input: GET /values?readout=microsomal CLint at 1 μM&item= COCCNC(=O)c1ccc(-c2nc(Nc3cnn(C)c3)ncc2C)cc1
Output: 2.58

Input: GET /values?readout=microsomal CLint at 1 μM&item= N#CCNC(=O)c1ccc(-c2nc(Nc3cnn(C4CC4)c3)ncc2Cl)cc1
Output: 31.1

Input: GET /values?readout=microsomal CLint at 1 μM&item= Cc1cnc(Nc2cnn(C)c2)nc1-c1ccc(C(=O)N[C@H](C)C#N)cc1
Output: 19.2

Input: GET /values?readout=microsomal CLint at 1 μM&item= Cc1cnc(Nc2cnn(C3C[C@H]4CC[C@@H](C3)O4)c2)nc1-c1ccc(C(=O)N[C@@H](C)C#N)cc1 (some centres unmarked)
Output: 32.5

Input: GET /values?readout=microsomal CLint at 1 μM&item= CC[C@@H](C#N)NC(=O)c1ccc(-c2nc(Nc3cnn(CCO)c3)ncc2Cl)cc1
Output: 14.4

Input: GET /values?readout=microsomal CLint at 1 μM&item= Cc1cnc(Nc2cnn(C3CC3)c2)nc1-c1ccc(C(=O)N2CC(C#N)C2)c(F)c1
Output: 628

Input: GET /values?readout=microsomal CLint at 1 μM&item= Cc1cnc(Nc2cnn(C3CCOCC3)c2)nc1-c1ccc(C(=O)NCC#N)cc1
Output: 17.1

Input: GET /values?readout=microsomal CLint at 1 μM&item= Cc1cnc(Nc2cnn(C3CC3)c2)nc1-c1ccc(C(=O)NC2(C#N)CC2)cc1
Output: 110

Input: GET /values?readout=microsomal CLint at 1 μM&item= Cc1cnc(Nc2cnn(C3CC3)c2)nc1-c1ccc(C(=O)NCC#N)nc1
Output: 26.1

Input: GET /values?readout=microsomal CLint at 1 μM&item= Cc1cnc(Nc2cnn(C3CCN(C(=O)[C@H]4CC4(C)C)CC3)c2)nc1-c1ccc(C(=O)NCC#N)cc1
Output: 599
